Task for the reader: assign each of the following binders its reported Ka.
- testTarget: T1, human 5T4 antigen (human, UniProt Q13641 32-355, limits assumed)
- T1 sequence: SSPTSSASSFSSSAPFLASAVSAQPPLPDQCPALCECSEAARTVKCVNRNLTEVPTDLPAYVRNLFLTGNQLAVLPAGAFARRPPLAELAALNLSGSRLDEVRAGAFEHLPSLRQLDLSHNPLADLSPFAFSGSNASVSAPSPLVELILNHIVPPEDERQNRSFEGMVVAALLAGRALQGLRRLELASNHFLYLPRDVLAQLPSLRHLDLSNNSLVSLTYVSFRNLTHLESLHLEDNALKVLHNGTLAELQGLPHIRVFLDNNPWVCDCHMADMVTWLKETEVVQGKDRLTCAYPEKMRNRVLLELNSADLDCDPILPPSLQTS
- protocolNotes: BIACORE (SPR); human 5T4 antigen immobilized on CM5 chip

[Q] What value of Ka has been recorded for this entry: chimeric A1 antibody (antibody, V domains shown, Biotinylated when used as the labelled competitor in Table 13; the site is not stated., also called ChiA1; ChiA1 γ4) VH: QIQLVQSGPELKKPGETVKISCKASGYTFTNFGMNWVKQGPGEGLKWMGWINTNTGEPRYAEEFKGRCAFSLETTASTAYLQINNLKNEDTATYFCARDWDGAYFFDYWGQGTTLTVSS VL: SIVMTQTPKFLLVSAGDRVTITCKASQSVSNDVAWYQQKPGQSPKLLINFATNRYTGVPNRFTGSGYGTDFTFTISTVQAEDLALYFCQQDYSSPWTFGGGTKLEIK
[A] 2.3e+09 M⁻¹

[Q] What value of Ka has been recorded for this entry: chimeric A3 antibody (antibody, human IgG4, V domains shown, also called ChiA3; ChiA3 γ4) VH: EVQLVESGGGLVQPKGSLKLSCAASGFTFNTYAMNWVRQAPGKGLEWVARIRSKSNNYATYYADSVKDRFTISRDDSQSMLYLQMNNLKTEDTAMYCCVRQWDYDVRAMNYWGQGTSVTVSS VL: DIVMTQSHIFMSTSVGDRVSITCKASQDVDTAVAWYQQKPGQSPKLLIYWASTRLTGVPDRFTGSGSGTDFTLTISNVQSEDLADYFCQQYSSYPYTFGGGTKLEIK
[A] ~5.4e+09 M⁻¹

[Q] What value of Ka has been recorded for this entry: chimeric A1 antibody bearing C67F mutation (antibody, V domains shown, also called Chimeric A1 + C67F; ChiA1+C67F) VH: QIQLVQSGPELKKPGETVKISCKASGYTFTNFGMNWVKQGPGEGLKWMGWINTNTGEPRYAEEFKGRFAFSLETTASTAYLQINNLKNEDTATYFCARDWDGAYFFDYWGQGTTLTVSS VL: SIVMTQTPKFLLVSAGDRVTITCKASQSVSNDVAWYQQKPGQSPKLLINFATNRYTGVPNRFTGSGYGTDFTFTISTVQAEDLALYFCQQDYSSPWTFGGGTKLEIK
[A] 2.6e+09 M⁻¹

[Q] What value of Ka has been recorded for this entry: chimeric A3 antibody bearing C91Y mutation (antibody, V domains shown, also called Chimeric A3 + C91Y; ChiA3+C91Y) VH: EVQLVESGGGLVQPKGSLKLSCAASGFTFNTYAMNWVRQAPGKGLEWVARIRSKSNNYATYYADSVKDRFTISRDDSQSMLYLQMNNLKTEDTAMYYCVRQWDYDVRAMNYWGQGTSVTVSS VL: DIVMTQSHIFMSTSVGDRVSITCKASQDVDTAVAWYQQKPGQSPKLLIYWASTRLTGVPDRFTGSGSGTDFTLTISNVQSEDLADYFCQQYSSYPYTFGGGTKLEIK
[A] 1.7e+09 M⁻¹

[Q] What value of Ka has been recorded for this entry: chimeric A2 antibody (antibody, human IgG4, V domains shown, also called ChiA2; ChiA2 γ4) VH: QVQLQQSRPELVKPGASVKMSCKASGYTFTDYVISWVKQRTGQGLEWIGEIYPGSNSIYYNEKFKGRATLTADKSSSTAYMQLSSLTSEDSAVYFCAMGGNYGFDYWGQGTTLTVSS VL: QIVLTQSPAIMSASLGERVTLTCTASSSVNSNYLHWYQQKPGSSPKLWIYSTSNLASGVPARFSGSGSGTSYSLTISSMEAEDAATYYCHQYHRSPLTFGAGTKLELK
[A] 5.7e+08 M⁻¹
